Taken from patent US20230142126A1.

- System: SARS-CoV-2
- procedure_summary: microbe, parasite or virus in culture
- Assay type: cell-based
- stated_conditions: Calu-3, plaque assay, estimated from 1 and 10 µM
pEC50: −log10 of the molar value.
endpoint_name: pEC50

The measured pEC50 associated with "C[C@@H]1CS/C(=N\NC(=O)C(=O)[C@@H](NC(=O)C2CCCCCC2)C2CCOCC2)N1C" reads > 6.00

---

- procedure_summary: Cytotoxicity assay (MTS dye reduction) in the cells of the Enterovirus assay
- Assay type: cell-based
- stated_conditions: human
endpoint_name: CC50 at 4 days

The measured CC50 at 4 days associated with CCCN1CCN(c2ccc(C(=O)NC3(C(=O)NCC#N)CCCCC3)cc2)CC1 [Balicatib] reads > 30 µM
